EXPERIMENTAL PROTOCOL: in vivo
DETAILS: mouse, ip
TEST READOUT: MTD
Remember to quote the unit after the number.

compound COC1=C(C)C(=O)C2=C(C1=O)C1C3CC4=C(C(=O)C(OC)=C(C)C4=O)C(CNC(=O)C(C)=O)N3CC(C2)N1C (stereo not shown) , MTD observed: 250 mg/kg

---

EXPERIMENTAL PROTOCOL: Toxicity in mice
DETAILS: mouse, in vivo, iv
TEST READOUT: LD50 (mg/kg)
Enter your answer as a number in mg/kg; do not include the unit.

molecule COC1=C(C)C(=O)C2=C(C1=O)C1C3CC4=C(C(=O)C(OC)=C(C)C4=O)C(CNC(=O)C(C)=O)N3C(C#N)C(C2)N1C (stereo not shown) , LD50 observed: 12

Source: patent US4248863A
